# credit: ChEMBL document CHEMBL1201862

- System: SF-295
- experimentDescription: NCI tumour cell line growth inhibition, 48 h
Activity calls are given as the source filed them. No stated cut-off is given here; in the data, active = GI50 up to about 1.1 µM and inactive = higher.
Pick one and only one: Yes = active, No = inactive

Example cases with answers are listed next.
compound: O=[N+]([O-])/C(C(Cl)=C(Cl)Cl)=C(/Nc1cccc2cccnc12)n1nnc2ccccc21
group: No
--
compound: O=S(=O)(O)c1ccc(/N=N/c2ccc3c(S(=O)(=O)O)cccc3c2O)c2ccccc12
group: No
--
compound: CCP(=O)(CC)C(Cl)(Cl)C(O)C(C)(C)C (stereo not given)
group: No
--
compound: Brc1ccc2c(c1)-c1nc3nc4c(cc3cc1CC2)CCc1ccc(Br)cc1-4
group: No
--
compound: COc1cc(OC)c2nc(C)c3c(c2c1)SCC3
group: No

Please state the recorded outcome for this compound: CC(=O)Oc1cc2c(n(C)c1=O)CCC2 No

Another compound: N=C(NNS(=O)(=O)c1ccccc1)Oc1ccc(Cl)cc1 No

Another compound: CCCCN1CSC(=S)N(Cc2ccccc2)C1 No

====

- Tested on: NCI-H522
- experimentDescription: NCI tumour cell line growth inhibition, 48 h
Activity calls are given as the source filed them. Cut-off read from the data, not from the text of the source: active = GI50 up to about 1.1 µM and inactive = higher.
Item-by-item account of GI50

compound: COc1cc(OC)c(OC)cc1/C=C1\C=Cc2ccccc21
targetOfAssay: NCI-H522
metric: GI50
reported: 12.1 µM (inactive)
//
compound: COc1cccc(NC(=O)CSc2nnc(-c3ccc(/N=C\c4ccc(Cl)cc4)cc3)o2)c1
targetOfAssay: NCI-H522
metric: GI50
reported: 15.6 µM (inactive)
//
compound: NCCN(CCN(C(=O)Nc1ccccc1)c1ccccc1)C(=O)Nc1ccccc1
targetOfAssay: NCI-H522
metric: GI50
reported: 19 µM (inactive)
//
compound: CCN1C(=O)c2cc(OC)c(OC)cc2C(=O)C12OC(=O)c1cc3c(cc12)OCO3 (stereo not given)
targetOfAssay: NCI-H522
metric: GI50
reported: > 100 µM (inactive)
//
compound: O=C1N[C@@H]2CCC[C@@H]2[C@@H]1c1ccc(Cl)cc1
targetOfAssay: NCI-H522
metric: GI50
reported: > 100 µM (inactive)

For O=C(OCCOCBr)c1ccccc1 , what is its reported GI50? > 100 µM (inactive)

Another compound: COC(=O)C(C(=O)C(=O)Nc1ccc(C)cc1C)c1csc(-n2nc(-c3ccccc3)cc2-c2ccccc2)n1 (stereo not given) > 100 µM (inactive)

Another compound: CC(C)(C)OC(=O)NCC(=O)OCc1ccccc1 > 10 µM (inactive)

Another compound: O=C(O)CCNS(=O)(=O)c1ccc2ccccc2c1 > 100 µM (inactive)

Another compound: N=C(N)Nc1ccc(CC(N)C(=O)NCC(=O)C(CC(=O)O)c2ncc(NC(=O)C(F)(F)F)o2)cc1 (stereo not given) > 25 µM (inactive)

====

- Test system: NCI-H23
- experimentDescription: NCI tumour cell line growth inhibition, 48 h
Active and inactive are the calls of the source. No stated cut-off is given here; in the data, active = GI50 up to about 1.1 µM and inactive = higher.
Item-by-item account of GI50

Worked examples, 4 molecules total:
molecule: CN(NC(=O)c1cccs1)C1=NCCCN1
targetOfAssay: NCI-H23
GI50: > 100 µM (inactive)

molecule: Cc1cc(O)c(C(C)C)cc1C1(c2cc(C(C)C)c(O)cc2C)OC(=O)c2ccccc21
targetOfAssay: NCI-H23
GI50: 2.12 µM (inactive)

molecule: CC1(C)N=c2[nH]cnc2=C(C(N)=O)N1
targetOfAssay: NCI-H23
GI50: > 100 µM (inactive)

molecule: CCC(O)C1Cc2c(C)cc3c(c2O1)C(=O)c1ccccc1C3=O (stereo not given)
targetOfAssay: NCI-H23
GI50: 33.3 µM (inactive)

For CCOC(=O)c1ccc2nc3n(c2c1)C(c1c(F)cccc1F)SC3 (stereo not given) , what is its reported GI50? 78.9 µM (inactive)

Another molecule: Cc1ccc(S(=O)(=O)n2cncc2CO)cc1 > 100 µM (inactive)

Another molecule: CCOC(=O)NN(C(=O)OCC)C(=C(C1=CCCCC1)N1CCOCC1)N(NC(=O)OCC)C(=O)OCC > 100 µM (inactive)

Another molecule: NNC(=O)c1nn[nH]c1SSc1[nH]nnc1C(=O)NN > 100 µM (inactive)

Another molecule: CCCCC1=CC1(C#N)[N+](=O)[O-] (stereo not given) > 100 µM (inactive)

====

Item-by-item account of GI50
- Test system: MOLT-4
- experimentDescription: NCI tumour cell line growth inhibition, 48 h
Active and inactive are the calls of the source. No stated cut-off is given here; in the data, active = GI50 up to about 1.1 µM and inactive = higher.

compound: O=C(CSc1nccc(=O)[nH]1)c1ccccc1
metric: GI50
reported: > 100 µM (inactive)
--
compound: Cc1ccc(S(=O)(=O)OC2C(O)C(O)OC2C(c2cc(O)c3c(c2O)C(=O)c2ccccc2C3=O)c2cc(O)c3c(c2O)C(=O)c2ccccc2C3=O)cc1 (stereo not given)
metric: GI50
reported: 3.31 µM (inactive)
--
compound: NCCOc1ccccn1
metric: GI50
reported: > 100 µM (inactive)
--
compound: CO/[N+]([O-])=C\C(=O)N/C=C/C(=O)O
metric: GI50
reported: > 100 µM (inactive)

For C[C@]12Cc3conc3C(O)=C1CC[C@@H]1C2CC[C@@]2(C)C1CC[C@@H]2O (stereo not given in full) , what is its reported GI50? 6.68 µM (inactive)

====

- System: CAKI-1
- experimentDescription: NCI tumour cell line growth inhibition, 48 h
Calls of active or inactive are those of the source. Cut-off read from the data, not from the text of the source: active = GI50 up to about 1.1 µM and inactive = higher.
metric: GI50

Worked examples, 3 compounds total:
compound: COc1ccc(/C=C2\C[C@H]3[C@@H]4CCC5=CC(=O)CC[C@]5(C)[C@H]4CC[C@]3(C)C2=O)cc1OC
GI50: 6.97 µM (inactive)

compound: CC(C)c1cccc(C(C)C)c1OS(=O)(=O)NC(=O)OC(C(F)(F)F)C(F)(F)F
GI50: > 100 µM (inactive)

compound: CCOc1c(/N=N/c2ccccc2Cl)c(-c2ccccc2)nn1C(=S)S
GI50: 18.7 µM (inactive)

Lab note: need GI50 with CAKI-1 for entry CC(=O)Oc1ccc2c(=O)c(C(C)=O)coc2c1 , please look it up. > 100 µM (inactive)

Another compound: CC(C#N)N(CCc1ccccc1)C(=O)c1ccccc1 (stereo not given) > 100 µM (inactive)

====

- System: IGROV-1
- experimentDescription: NCI tumour cell line growth inhibition, 48 h
The source made the active and inactive calls. Rule as the data show it: active = GI50 up to about 1.1 µM and inactive = higher.
metric: GI50

Worked examples, 3 compounds total:
compound: CC(=O)N1N=C(c2ccc3ccccc3c2O)CC1c1ccc(Cl)cc1Cl (stereo not drawn)
targetOfAssay: IGROV-1
GI50: 22.4 µM (inactive)
--
compound: O=C1OC([C@H](O)c2cccnc2)c2ccccc21 (stereo partly drawn)
targetOfAssay: IGROV-1
GI50: > 10 µM (inactive)
--
compound: OCC(O)COCn1cc(Cn2ncc3c(SCc4ccccc4)ncnc32)nn1 (stereo not drawn)
targetOfAssay: IGROV-1
GI50: > 100 µM (inactive)

For COCn1c(C)c(C)c2c(=O)oc(=O)[nH]c21 , what is its reported GI50? > 100 µM (inactive)

Another compound: CCOC(=O)/C=C(\C(=O)OCC)n1cc(Cl)c(=O)n(CC(=O)OCC)c1=O 6.93 µM (inactive)

Another compound: O=C1c2scc(-c3ccccc3)c2-n2cccc21 2.59 µM (inactive)

Another compound: CCCCCCCCCCCCCCCCCCNc1ccn(C2OC(COP(=O)(O)OCC3OC(n4cc(F)c(=O)[nH]c4=O)CC3O)C(O)C2O)c(=O)n1 (stereo not drawn) 10.1 µM (inactive)

Another compound: CCOC(=O)/C=C(/OCC)[C@@H]1C(C(=O)c2ccc(Cl)cc2)[C@@H]1/C(=C\C(=O)OCC)OCC (stereo partly drawn) 56.5 µM (inactive)

====

- Test system: HCC 2998
- experimentDescription: NCI tumour cell line growth inhibition, 48 h
Active and inactive are the calls of the source. No stated cut-off is given here; in the data, active = GI50 up to about 1.1 µM and inactive = higher.
Pick one and only one: t (active), f (inactive)

molecule: O=C(O)c1ccc(NNc2cc(=O)[nH]c(=O)[nH]2)cc1
group: f

molecule: CC[C@@]1(O)C(=O)OCc2c1cc1n(c2=O)Cc2cc3cc4c(cc3nc2-1)OCO4
group: t

molecule: COC1CC(OC2CCC3(C)C(=CCC4C3C(OC(C)=O)C(OC(=O)CC(C)C)C3(C)C(C(C)=O)CCC43O)C2)OC(C)C1OC1CC(OC)C(OC2CC(OC)C(OC3OC(C)C(O)C(OC)C3O)C(C)O2)C(C)O1 (centres undefined)
group: f

molecule: c1ccc2c(c1)SC1=C(SC(=C3SC4=C(S3)Sc3ccccc3S4)S1)S2
group: f

molecule: CC(=O)OC(CN1CCN(c2ccccn2)CC1)Cn1sc2nc(C)cc(C)c2c1=O (centres undefined)
group: f

Consider the record given below.
Please state the recorded outcome for this molecule: CC(=O)NC1C(OCc2ccccc2)OC(CO)C(O)C1OCC(=O)N[C@@H](C)C(=O)N[C@H](CCC(=O)NCCCNc1ccc([N+](=O)[O-])c2[nH]c3ccccc3c(=O)c12)C(N)=O (some centres undefined) f
